The following compounds are listed with their measured IC50 values.
biological target: Human PD-L1/PD-1 (Homo sapiens, UniProt Q9NZQ7); construct: TVMV protease cleavage site (C); made in house; host or cells: HEK293T cells; test: HTRF Human PD-L1/PD-1 binding assay (PD-1-Ig/PD-L1-His); details: PD-L1-His 10 nM, PD-1-Ig 20 nM; class symbol; read-out: HTRF Human PD-L1/PD-1 Binding Assay IC50 Range
Sequence (Q9NZQ7 with tags, fused parts or gaps): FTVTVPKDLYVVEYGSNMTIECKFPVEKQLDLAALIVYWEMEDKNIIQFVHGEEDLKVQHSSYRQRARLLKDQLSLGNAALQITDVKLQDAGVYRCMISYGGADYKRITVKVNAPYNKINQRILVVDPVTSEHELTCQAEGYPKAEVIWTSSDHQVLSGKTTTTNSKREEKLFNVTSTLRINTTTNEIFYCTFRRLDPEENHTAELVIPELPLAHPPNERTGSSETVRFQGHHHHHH
Where a SMILES comes first, the peptide text is derived from it. Bridges are numbered along the chain shown (N, C = ends). [ ]: non-standard residue; d: D form. Phe(4-F) = N[C@@H](Cc1ccc(F)cc1)C(=O)O; NMeF = CN[C@@H](Cc1ccccc1)C(=O)O; NMehSer = CN[C@@H](CCO)C(=O)O; NMeNle = CCCC[C@H](NC)C(=O)O; NMeV = CN[C@H](C(=O)O)C(C)C; dPip = O=C(O)[C@H]1CCCCN1; Orn = NCCC[C@H](N)C(=O)O

compound="CCCC[C@H]1C(=O)N2CCC[C@@H]2C(=O)N[C@@H](CC(=O)O)C(=O)N[C@@H](C(C)C)C(=O)N(C)[C@@H](C(C)C)C(=O)N[C@@H](CCC(N)=O)C(=O)N2CCCC[C@@H]2C(=O)N[C@@H](Cc2c[nH]c3ccccc23)C(=O)N[C@@H](Cc2ccc(O)cc2)C(=O)N[C@@H](CCCN)C(=O)N[C@H](C(=O)NCC(N)=O)CSCC(=O)N[C@@H](Cc2ccc(F)cc2)C(=O)N(C)[C@@H](Cc2ccccc2)C(=O)N1C [Example 9248] ({CH2CO}-[Phe(4-F)][NMeF][NMeNle][dP]DV[NMeV]Q[dPip]WY[Orn]CG-NH2; thioether N-13)" result="1000 to 10000 nM"

# evaluate next
Exercise: Read the entry CCCC[C@H]1C(=O)N2CCC[C@@H]2C(=O)N[C@@H](CC(=O)O)C(=O)N[C@@H](C(C)C)C(=O)N(C)[C@@H](CCOC)C(=O)N[C@@H](Cc2ccc(O)cc2)C(=O)N2CCCC[C@@H]2C(=O)N[C@@H](Cc2c[nH]c3ccccc23)C(=O)N[C@@H](Cc2ccc(O)cc2)C(=O)N[C@@H](CC(C)C)C(=O)N[C@H](C(=O)NCC(N)=O)CSCC(=O)N[C@@H](Cc2ccc(F)cc2)C(=O)N(C)[C@@H](Cc2ccccc2)C(=O)N1C [Example 9220] ({CH2CO}-[Phe(4-F)][NMeF][NMeNle][dP]DV[NMehSer](Me)Y[dPip]WYLCG-NH2; thioether N-13) and write its reported IC50.
Solution: 100 to 990 nM

====

target: Human PD-L1/PD-1 (Homo sapiens, UniProt Q9NZQ7); construct: TVMV protease cleavage site (C); made in house; host or cells: HEK293T cells; assay: HTRF Human PD-L1/PD-1 binding assay (PD-1-Ig/PD-L1-His); conditions: PD-L1-His 10 nM, PD-1-Ig 20 nM; read-out: HTRF Human PD-L1/PD-1 Binding Assay IC50
Where a SMILES comes first, the peptide text is derived from it. Bridges are numbered along the chain shown (N, C = ends). [ ]: non-standard residue; d: D form. NMeF = CN[C@@H](Cc1ccccc1)C(=O)O; dHyp = O=C(O)[C@H]1C[C@H](O)CN1; NMeNle = CCCC[C@H](NC)C(=O)O; Sar = CNCC(=O)O
Readout Name: IC50 (µM)
Just the number in µM, nothing appended.

molecule="CCCC[C@H]1C(=O)N(C)CC(=O)N[C@@H](CC(=O)O)C(=O)N[C@@H](C)C(=O)N(C)[C@@H](Cc2ccccc2)C(=O)N[C@@H](Cc2ccc(O)cc2)C(=O)N2C[C@@H](O)C[C@@H]2C(=O)N[C@@H](Cc2c[nH]c3ccccc23)C(=O)N[C@@H](Cc2ccc(O)cc2)C(=O)N[C@@H](CC(C)C)C(=O)N[C@H](C(=O)NCC(N)=O)CSCC(=O)N[C@@H](Cc2ccccc2)C(=O)N(C)[C@@H](Cc2ccccc2)C(=O)N1C [Example 10083] ({CH2CO}-F[NMeF][NMeNle][Sar]DA[NMeF]Y[dHyp]WYLCG-NH2; thioether N-13)" quantitative_readout=0.158

Exercise: Print Human PD-L1/PD-1 (Homo sapiens, UniProt Q9NZQ7) IC50 for CCCC[C@H]1NC(=O)[C@H](Cc2c[nH]c3ccccc23)NC(=O)[C@H](CO)NC(=O)[C@H](Cc2c[nH]c3ccccc23)NC(=O)[C@@H]2C[C@@H](O)CN2C(=O)[C@H](CC(C)C)NC(=O)[C@H](Cc2cnc[nH]2)NC(=O)[C@@H]2CCCN2C(=O)[C@H](CC(N)=O)NC(=O)[C@H](C)N(C)C(=O)[C@H](Cc2ccc(O)cc2)NC(=O)CSCC(C(=O)NCC(N)=O)NC(=O)[C@H](CCC(=O)O)NC(=O)[C@H](CCCC)N(C)C1=O (some centres unmarked) [Example 10131] .
Solution: 2.9

====

target: Human PD-L1/PD-1 (Homo sapiens, UniProt Q9NZQ7); construct: TVMV protease cleavage site (C); made in house; host or cells: HEK293T cells; experiment: HTRF Human PD-L1/PD-1 binding assay (PD-1-Ig/PD-L1-His); conditions: PD-L1-His 10 nM, PD-1-Ig 20 nM; class symbol; read-out: HTRF Human PD-L1/PD-1 Binding Assay IC50 Range
Where a SMILES comes first, the peptide text is derived from it. Bridges are numbered along the chain shown (N, C = ends). [ ]: non-standard residue; d: D form. ξ: configuration not given here. Phe(4-F) = N[C@@H](Cc1ccc(F)cc1)C(=O)O; Hyp = O=C(O)[C@@H]1C[C@@H](O)CN1; NMeF = CN[C@@H](Cc1ccccc1)C(=O)O; NMehSer = CN[C@@H](CCO)C(=O)O; NMeNle = CCCC[C@H](NC)C(=O)O; Pip = O=C(O)[C@@H]1CCCCN1; dPip = O=C(O)[C@H]1CCCCN1; hSer = N[C@@H](CCO)C(=O)O; NMeA = CN[C@@H](C)C(=O)O; Orn = NCCC[C@H](N)C(=O)O; Dab = NCC[C@H](N)C(=O)O; Dap = NC[C@H](N)C(=O)O; ξC = NC(CS)C(=O)O
Readout Name: IC50

Sample records with IC50:
molecule="CCCC[C@H]1C(=O)N2CCC[C@@H]2C(=O)N[C@@H](CC(=O)O)C(=O)N[C@@H](C(C)C)C(=O)N(C)[C@@H](CCOC)C(=O)N[C@@H](Cc2ccc(O)cc2)C(=O)N2CCC[C@@H]2C(=O)N[C@@H](Cc2c[nH]c3ccccc23)C(=O)N[C@@H](Cc2ccc(O)cc2)C(=O)N[C@@H](CCCN)C(=O)N[C@H](C(=O)NCC(N)=O)CSCC(=O)N[C@@H](Cc2ccc(F)cc2)C(=O)N(C)[C@@H](Cc2ccccc2)C(=O)N1C [Example 9221] ({CH2CO}-[Phe(4-F)][NMeF][NMeNle][dP]DV[NMehSer](Me)Y[dP]WY[Orn]CG-NH2; thioether N-13)" system_name="Human PD-L1/PD-1 (Homo sapiens, UniProt Q9NZQ7)" readout_name=IC50 result="0.1 to 0.99 µM"
molecule="CCCC[C@H]1C(=O)N[C@@H](CC(N)=O)C(=O)N2CCC[C@H]2C(=O)N[C@@H](CO)C(=O)N[C@@H](CCO)C(=O)N2CCC[C@H]2C(=O)N[C@@H](Cc2c[nH]c3ccccc23)C(=O)N[C@@H](CCN)C(=O)N[C@@H](Cc2c[nH]c3ccccc23)C(=O)N(C)[C@@H](C)C(=O)N(C)[C@@H](C)C(=O)N[C@@H](CCCNC(=N)N)C(=O)NC(C(=O)NCC(N)=O)CSCC(=O)N[C@@H](Cc2ccc(O)cc2)C(=O)N1C (some centres unmarked) [Example 10203] ({CH2CO}-Y[NMeNle]NPS[hSer]PW[Dab]W[NMeA][NMeA]R[ξC]G-NH2; thioether N-14)" system_name="Human PD-L1/PD-1 (Homo sapiens, UniProt Q9NZQ7)" readout_name=IC50 result="1 to 10 µM"
molecule="CCCC[C@H]1C(=O)N[C@@H](Cc2ccc(O)cc2)C(=O)N2CCCC[C@@H]2C(=O)N[C@@H](Cc2c[nH]c3ccccc23)C(=O)N[C@@H](Cc2ccc(O)cc2)C(=O)N[C@@H](CC(C)C)C(=O)N[C@H](C(=O)NCC(N)=O)CSCC(=O)N[C@@H](Cc2ccc(F)cc2)C(=O)N(C)[C@@H](Cc2ccccc2)C(=O)N(C)[C@@H](CCCC)C(=O)N2CCC[C@@H]2C(=O)N[C@@H](CC(=O)O)C(=O)N[C@@H](C(C)C)C(=O)N1C [Example 9214] ({CH2CO}-[Phe(4-F)][NMeF][NMeNle][dP]DV[NMeNle]Y[dPip]WYLCG-NH2; thioether N-13)" system_name="Human PD-L1/PD-1 (Homo sapiens, UniProt Q9NZQ7)" readout_name=IC50 result="0.1 to 0.99 µM"
molecule="CCCC[C@H]1C(=O)N2CCC[C@@H]2C(=O)N[C@@H](CO)C(=O)N[C@@H](C)C(=O)N(C)[C@@H](Cc2ccccc2)C(=O)N[C@@H](Cc2ccc(O)cc2)C(=O)N2CCCC[C@@H]2C(=O)N[C@@H](Cc2c[nH]c3ccccc23)C(=O)N[C@@H](Cc2ccc(O)cc2)C(=O)N[C@@H](CC(C)C)C(=O)N[C@H](C(=O)NCC(N)=O)CSCC(=O)N[C@@H](Cc2ccccc2)C(=O)N(C)[C@@H](Cc2ccccc2)C(=O)N1C [Example 10056] ({CH2CO}-F[NMeF][NMeNle][dP]SA[NMeF]Y[dPip]WYLCG-NH2; thioether N-13)" system_name="Human PD-L1/PD-1 (Homo sapiens, UniProt Q9NZQ7)" readout_name=IC50 result="0.1 to 0.99 µM"

Could you now consider this next molecule?
Exercise: Quick one: give measured IC50 for CCCC[C@H]1C(=O)N(C)[C@@H](CCCC)C(=O)N[C@@H](CCC(=O)O)C(=O)N[C@H](C(=O)NCC(N)=O)CSCC(=O)N[C@@H](Cc2ccc(O)cc2)C(=O)N2CCCC[C@H]2C(=O)N[C@@H](CC(=O)O)C(=O)N2CCC[C@H]2C(=O)N[C@@H](CN)C(=O)N[C@@H](CCC(=O)O)C(=O)N2C[C@H](O)C[C@H]2C(=O)N[C@@H](Cc2c[nH]c3ccccc23)C(=O)N[C@@H](CO)C(=O)N[C@@H](Cc2c[nH]c3ccccc23)C(=O)N1C [Example 1521] ({CH2CO}-Y[Pip]DP[Dap]E[Hyp]WSW[NMeNle][NMeNle]ECG-NH2; thioether N-14)
Solution: 0.001 to 0.0099 µM

These data points were gathered from patent US10538555B2.
